- Test system: MDA-MB-453
- protocol: normalised viability (% of control), CellTiter-Blue; higher = more viable cells (about 100 = DMSO control)
- setup.conditions: 3 nM; incubation time: 72 h
What normalised viability was measured for each of the following?
Note: state the figure and append the unit.

Note to self: normalised viability recorded for O=C(c1cc(Cc2n[nH]c(=O)c3ccccc23)ccc1F)N1CCN(C(=O)C2CC2)CC1 [Olaparib] was 109%

Could you report normalised viability for every entry in the following list?
1. CC(C)C[C@H](NC(=O)[C@H](CCc1ccccc1)NC(=O)CN1CCOCC1)C(=O)N[C@@H](Cc1ccccc1)C(=O)N[C@@H](CC(C)C)C(=O)[C@@]1(C)CO1 [Carfilzomib]
2. Cc1cc2c(F)c(Oc3ncnn4cc(OC[C@@H](C)O)c(C)c34)ccc2[nH]1 [Brivanib]
3. O=NN(CCCl)C(=O)NC1CCCCC1 [Lomustine]

1: 38.5%; 2: 110%; 3: 120%
